# target-entity: panel of 442 kinases (Homo sapiens)
# Construct: purchased KINOMEscan
# Type: binding
# Parameters: unit: % Ctrl
# conditions: Compound Concentration 10 µM
Listed next: entries and their corresponding KINOMEscan: BMPR1A.
metric-name: KINOMEscan: BMPR1A

# compound, metric-name, test-result
records = [
    ("COc1cc(C(=O)N2CCC(N3CCN(C)CC3)CC2)ccc1Nc1ncc2c(n1)N(C)c1ccccc1C(=O)N2C [15 (LRRK2-IN-1)]", "KINOMEscan: BMPR1A", 100),
    ("COc1cc(C(=O)N2CCC(N3CCN(C)CC3)CC2)ccc1Nc1ncc2c(n1)N1CCc3cccc(c31)C(=O)N2C [Compound 24]", "KINOMEscan: BMPR1A", 67),
    ("COc1cc(C(=O)N2CCC(N3CCN(C)CC3)CC2)ccc1Nc1ncc2c(n1)N(C1CCCC1)c1ccccc1C(=O)N2C [Compound 25]", "KINOMEscan: BMPR1A", 96),
    ("CCOc1cc(C(=O)N2CCC(N3CCN(C)CC3)CC2)ccc1Nc1ncc2c(n1)N(C1CCCC1)c1ccccc1C(=O)N2C [Compound 26]", "KINOMEscan: BMPR1A", 100),
]

###

# target-entity: panel of 442 kinases (Homo sapiens)
# Construct: purchased KINOMEscan
# Assay type: binding
# conditions: kinase STK35; compound concentration 10 µM
# Description: We assessed the selectivity of members of this scaffold using the KINOMEscan methodology across a near comprehensive panel of 442 kinases [[18,27]].
In this section, each of the molecules is paired with its reported % Ctrl, STK35.

# chemical-smiles, target-entity, % Ctrl, STK35
records = [
    ("COc1cc(C(=O)N2CCC(N3CCN(C)CC3)CC2)ccc1Nc1ncc2c(n1)N(C)c1ccccc1C(=O)N2C", "panel of 442 kinases (Homo sapiens)", "100 % Ctrl"),
    ("CCOc1cc(C(=O)N2CCC(N3CCN(C)CC3)CC2)ccc1Nc1ncc2c(n1)N(C1CCCC1)c1ccccc1C(=O)N2C", "panel of 442 kinases (Homo sapiens)", "96 % Ctrl"),
    ("COc1cc(C(=O)N2CCC(N3CCN(C)CC3)CC2)ccc1Nc1ncc2c(n1)N1CCc3cccc(c31)C(=O)N2C", "panel of 442 kinases (Homo sapiens)", "100 % Ctrl"),
    ("COc1cc(C(=O)N2CCC(N3CCN(C)CC3)CC2)ccc1Nc1ncc2c(n1)N(C1CCCC1)c1ccccc1C(=O)N2C", "panel of 442 kinases (Homo sapiens)", "100 % Ctrl"),
]

###

As shown below, each of these compounds has a reported KINOMEscan: MYLK4 value.
# target-entity: panel of 442 kinases (Homo sapiens, UniProt Q86YV6)
# Construct: purchased KINOMEscan
# Sequence (Q86YV6 1-388): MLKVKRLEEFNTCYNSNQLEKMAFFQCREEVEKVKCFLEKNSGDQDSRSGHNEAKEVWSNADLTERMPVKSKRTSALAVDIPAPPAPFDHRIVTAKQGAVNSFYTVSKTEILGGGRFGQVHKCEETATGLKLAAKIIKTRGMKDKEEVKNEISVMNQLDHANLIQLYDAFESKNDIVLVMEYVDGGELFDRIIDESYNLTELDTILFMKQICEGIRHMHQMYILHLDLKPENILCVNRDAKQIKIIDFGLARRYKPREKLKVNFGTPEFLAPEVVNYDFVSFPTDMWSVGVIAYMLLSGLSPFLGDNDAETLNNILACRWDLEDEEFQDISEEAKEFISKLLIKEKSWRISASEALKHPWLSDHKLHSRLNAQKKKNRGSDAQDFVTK
# Format: binding
# conditions: Compound Concentration 10 µM
metric-name: KINOMEscan: MYLK4

# chemical-smiles, test-result
measured = [
    ("CCOc1cc(C(=O)N2CCC(N3CCN(C)CC3)CC2)ccc1Nc1ncc2c(n1)N(C1CCCC1)c1ccccc1C(=O)N2C", 100),
    ("COc1cc(C(=O)N2CCC(N3CCN(C)CC3)CC2)ccc1Nc1ncc2c(n1)N(C1CCCC1)c1ccccc1C(=O)N2C", 88),
    ("COc1cc(C(=O)N2CCC(N3CCN(C)CC3)CC2)ccc1Nc1ncc2c(n1)N1CCc3cccc(c31)C(=O)N2C", 78),
    ("COc1cc(C(=O)N2CCC(N3CCN(C)CC3)CC2)ccc1Nc1ncc2c(n1)N(C)c1ccccc1C(=O)N2C", 80),
]
